Tested on: RAW264.7
experiment summary: Antiinflammatory activity against LPS-stimulated mouse RAW264.7 cells assessed as inhibition of TNFalpha accumulation at 10 uM pretreated for 2 hrs before LPS challenge after 22 hrs by ELISA relative to control
Assay type: functional
Active and inactive are the calls of the source. The calls are words filed in the database; no cut-off is given here.
measured endpoint: Activity

[[record]]
smiles_notation = "O=C1/C(=C/c2ccc(Cl)cc2Cl)CCC/C1=C\\c1ccc(Cl)cc1Cl"
measured_endpoint = "Activity"
reported = "inactive"

[[record]]
smiles_notation = "Cc1ccc(/C=C2\\CC/C(=C\\c3ccc(C)cc3C)C2=O)c(C)c1"
measured_endpoint = "Activity"
reported = "Active"

[[record]]
smiles_notation = "O=C1/C(=C/c2cc(F)ccc2F)CC/C1=C\\c1cc(F)ccc1F"
measured_endpoint = "Activity"
reported = "inactive"

[[record]]
smiles_notation = "COc1ccc(/C=C/C(=O)/C=C/c2ccc(OC)cc2OC)c(OC)c1"
measured_endpoint = "Activity"
reported = "Active"

[[record]]
smiles_notation = "O=C1/C(=C/c2cccc(Cl)c2Cl)CCC/C1=C\\c1cccc(Cl)c1Cl"
measured_endpoint = "Activity"
reported = "inactive"

[[record]]
smiles_notation = "O=C1/C(=C/c2ccc(Cl)cc2Cl)CC/C1=C\\c1ccc(Cl)cc1Cl"
measured_endpoint = "Activity"
reported = "inactive"

[[record]]
smiles_notation = "O=C(/C=C/c1ccccc1C(=O)O)/C=C/c1ccccc1C(=O)O"
measured_endpoint = "Activity"
reported = "inactive"

[[record]]
smiles_notation = "O=C1/C(=C/c2ccccc2C(=O)O)CC/C1=C\\c1ccccc1C(=O)O"
measured_endpoint = "Activity"
reported = "inactive"

[[record]]
smiles_notation = "COc1cc(OC)c(/C=C2\\CCC/C(=C\\c3c(OC)cc(OC)cc3OC)C2=O)c(OC)c1"
measured_endpoint = "Activity"
reported = "Active"

[[record]]
smiles_notation = "O=C1/C(=C/c2cc(F)ccc2F)CCC/C1=C\\c1cc(F)ccc1F"
measured_endpoint = "Activity"
reported = "inactive"


Lookup: I have this molecule here, "O=C(/C=C/c1ccc(Cl)cc1Cl)/C=C/c1ccc(Cl)cc1Cl" , and I need its recorded Activity.
Found: inactive

Lookup: Which value of Activity has been reported for "COc1ccc(/C=C2\CC/C(=C\c3ccc(OC)cc3OC)C2=O)c(OC)c1" in the records?
Found: inactive

Lookup: Item "O=C1/C(=C/c2c(F)cccc2F)CC/C1=C\c1c(F)cccc1F" has what recorded Activity?
Found: inactive

Lookup: # get_value(readout='Activity', item= "COc1cc(OC)c(/C=C/C(=O)/C=C/c2c(OC)cc(OC)cc2OC)c(OC)c1" )
Found: Active
